For each record, write down the corresponding pEC50.
molecular target: human FPR2 (Homo sapiens (Human), UniProt P25090); test: FPR2 cyclic adenosine monophosphate (cAMP) assay; settings: CHO cells overexpressing human FPR2; forskolin 5 µM; inhibition of cAMP production; read-out: hFPR2 cAMP2 EC50
Sequence (P25090 whole entry): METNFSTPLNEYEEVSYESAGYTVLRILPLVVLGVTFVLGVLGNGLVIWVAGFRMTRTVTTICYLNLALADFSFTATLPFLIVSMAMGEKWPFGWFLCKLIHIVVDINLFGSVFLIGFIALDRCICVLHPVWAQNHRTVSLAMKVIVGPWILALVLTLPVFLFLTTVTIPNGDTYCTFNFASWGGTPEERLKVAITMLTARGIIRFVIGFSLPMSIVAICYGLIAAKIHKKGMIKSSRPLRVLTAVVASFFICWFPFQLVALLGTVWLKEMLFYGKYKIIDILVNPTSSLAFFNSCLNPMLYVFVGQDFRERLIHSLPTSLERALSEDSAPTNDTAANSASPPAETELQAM
// pEC50 here means minus log10 of the molar concentration (mol/L)

Req: Tell me reported pEC50 for "COc1cc(F)c([C@@H]2CN(c3ccnn(CC(F)F)c3=O)C(=O)[C@H]2NC(=O)c2ccc(OC(F)(F)F)cc2)c(F)c1" , tested with human FPR2 (Homo sapiens (Human), UniProt P25090).
Resp: 8.74

Req: Please tell me: pEC50 of "COc1cc(F)c([C@@H]2CN(c3nc(N4C[C@@H](C)N(C)[C@@H](C)C4)ccc3OC)C(=O)[C@H]2NC(=O)c2ccc(Cl)cc2)c(F)c1" , system human FPR2 (Homo sapiens (Human), UniProt P25090)?
Resp: 8.08

Req: Missing value: pEC50, human FPR2 (Homo sapiens (Human), UniProt P25090), entry "COc1cc(F)c([C@@H]2CN(c3c(C)c4c(n(CCO)c3=O)CCC4)C(=O)[C@H]2NC(=O)c2ccc(OC(F)(F)F)cc2)c(F)c1" . Fill in?
Resp: 8.15

Req: Hello, I am looking for reported pEC50 with human FPR2 (Homo sapiens (Human), UniProt P25090) for "COc1cc(F)c([C@@H]2CN(c3cc(C)cc(N4C[C@@H]5C[C@H]4CN5C)n3)C(=O)[C@H]2NC(=O)c2ccc(OC(F)F)cc2)c(F)c1" . Could you help?
Resp: 8.92

Req: Query for human FPR2 (Homo sapiens (Human), UniProt P25090): what pEC50 does the record show for COCC(C(=O)N(C)C)n1cccc(N2C[C@@H](c3c(F)cc(OC)cc3F)[C@H](NC(=O)c3ccc(OC(F)F)cc3)C2=O)c1=O (some centres unmarked) [Example 92] ?
Resp: 8.59

Req: // map COc1cc(F)c([C@@H]2CN(c3c(C)ccn(CC(F)F)c3=O)C(=O)[C@H]2NC(=O)c2ccc(Cl)cc2)c(F)c1 [Example 653] to recorded pEC50 (system: human FPR2 (Homo sapiens (Human), UniProt P25090))
Resp: 8.48

Req: Recorded pEC50 for "COc1cc(F)c([C@@H]2CN(c3cccnn3)C(=O)[C@H]2NC(=O)c2ccc(OC(F)F)cc2)c(F)c1" with human FPR2 (Homo sapiens (Human), UniProt P25090), please?
Resp: 8.03

Req: Identify the measured pEC50 of "COc1cc(F)c([C@@H]2CN(c3nccc(NC4COC4)c3C(F)(F)F)C(=O)[C@H]2NC(=O)c2ccc(Cl)cc2)c(F)c1" for human FPR2 (Homo sapiens (Human), UniProt P25090).
Resp: 7.92

Ref: patent US20230348426A1
